Test: yeast display, Sf9 membrane polyspecificity reagent, FACS + sequencing; frameworks hold sequencing errors
resultType: polyreactivity (PSR sort gate)

INSERT INTO assay_data (sequence, reported) VALUES
  ('QVQLVESGGGLVQAGGSLRLSCAASGRTFYANTMGWYRPAPGKERELVASITSRGTSTYYADSVKGRFTISRDNAKNTVYLEMNSLKPEDTAVYYCAKAFIAPQYAWGGDYWGQGTQVTVSS', 'high polyreactivity'),
  ('QVHLVESGGGLVQAGRSLRLSCAASGRTSAYYAMGWYRQAPGKERELDAGITRGGRTNYADSVKGRFTISRDNAKNTVYLQMNSLKPEDTAVYYCAAKYGYYWNSRTSGYWGQGTQVTVSS', 'high polyreactivity'),
  ('QVQLVESGGGLVQAGGSLRLSCAASGSTFGAYAMGWYRQAPGKERELVAAISSSDGSTYYADSVKGRFTISRDNAKNTVYLQMNSLKPEDTAVYYCAAEYYSAVYIDEYWYDYWGQGTQVTVSS', 'high polyreactivity');

====

Test: yeast display, Sf9 membrane polyspecificity reagent, FACS + sequencing; frameworks hold sequencing errors
resultType: polyreactivity (PSR sort gate)

INSERT INTO measurements (sequence, resulttype, reported) VALUES
  ('QVQLVESGGGLVQAGGSLRLSCAASGRIFGYNAMGWYRQAPGNERELVAAITNGGSTNYADSVKGRFTISRDNAKNTVYLQINSLKPEDTAVYYCAVKWYPPGHDYWGQGTQVTVSS', 'polyreactivity (PSR sort gate)', 'low polyreactivity'),
  ('QEQLVESGGGLVQAGGSLRLSCAASGFTFWYYAMGWYRQAPGKEREFVAAISLGGGRTYYADSVKGRFTHSRDNAKNTVYLQMNSLKPEDTAVYYCAVDSGTYRSYRYDYCGQGTQVTVSS', 'polyreactivity (PSR sort gate)', 'high polyreactivity'),
  ('QVQLVESGGGLVQAGGSLRLSCAASGRIFREYAMGWYRQAPGKERELVAAISSGASTYADSVKGRFTISRDNAKNTVYLQMNSLKPEDTAVYYCAKDIKLGPVGHSKYHRYDYWGQGTQVTVSS', 'polyreactivity (PSR sort gate)', 'low polyreactivity'),
  ('QVHLVESGGGLVQAGGSLRLSCAASGSTFQWYAMGWYIQAPGKERELVATISYTGGSRTYYADSVKGRFTNSRDNAKNTVYLQMNSLKPEDTAVYDCAAESNQLFYFRRFDFWGQGTQVTVSS', 'polyreactivity (PSR sort gate)', 'low polyreactivity'),
  ('QVQLVESGGGLVQAGGSLRLSCAASGNIFSYYAMGLYRPAPGKERELVAAIDWNGGTTYYADSVKGRFTISRDNAKNTVYLQMNSLKPEDTAVYYCAAAWYWYWFLFEGAPYDYWGQGTQVTVSS', 'polyreactivity (PSR sort gate)', 'high polyreactivity'),
  ('QVQLVESGGGLVQAGGSLRLSCAASGSTFQHYAMGWYRQAPGKERELVAAITHTGGSTYYADSVKGRFTISRDNAKNTVYLQMNSLKPEDTAVYYCATVGRRYGYPGYYWGQGTQVTVSS', 'polyreactivity (PSR sort gate)', 'low polyreactivity'),
  ('QVQLVESGGGLVQAGGSLRLSCAASGIIFFFYDMGWYRQSPGKERELVAAISDDGVSTDYADSVKGRFTISRDNAKNTVYLQMNSLKPEDTAVYYCAAKTERVYPWFSFGYWVQGTQVTVSS', 'polyreactivity (PSR sort gate)', 'low polyreactivity'),
  ('QVQLVESGGGLVQAGGSLRLSCAASGRTFNYYAMGWYRQAPGKERELVAAISGSGGRTYYADSVKGRFTISRDNAKNTVYLQMNSLKPEDTAVYYCNADVGKYPYAHTYWARRYYYLGQGTQVTVSS', 'polyreactivity (PSR sort gate)', 'high polyreactivity'),
  ('QVQLVESGGGLVQAGGSLRLSCAASGNTFRYNAMGWYRQAPWKERELVAAISRRGGSTYYADSVKGRFTISRDNAKNTVYLQMNSLKPEDTAVYYCNAGRTAENEYWGQGTQVTVSS', 'polyreactivity (PSR sort gate)', 'high polyreactivity'),
  ('QVQLVESVGGLVQAGGSLRLSCAASGNTFYAYAMGWYRQAPGKERELVAAIRKSGGNTYYADSVKGRFTISRYNAKNNVYLQMYSLKPEDTAVYYCAARYRGYAFLNYDYWGQGTQVTVSS', 'polyreactivity (PSR sort gate)', 'low polyreactivity'),
  ('QVQLVDSGGGLVQAGGRLRLSSAPTGSTFYVYLMGGYRQAHGKERELVAVIDWLGGSTYYADSVKGRFTISRDNAKNTVYLQLNSLKPEDTAVYYCYKDAQFYYNLPYYKERDWGQGTQVTVSS', 'polyreactivity (PSR sort gate)', 'low polyreactivity');

Origin of the recorded values: the nanobody polyreactivity screen of Harvey et al. (2022)
